All figures here come from patent US5252575A.

test: Further evaluation of BRL55792 as oral prodrug of BRL44385: AUC in blood of squirrel monkeys (Table 2); assay type: in vivo; conditions: 110 umol/kg, squirrel monkey, single oral dose 0.11 mmol/kg, 0-8 h, 3 animals, analyte BRL44385, read-out: Mean Area-under-the-curve ± SEM for BRL 44385
reported.metric: AUC at 8 h (µM·h)
Numbers only, in µM·h.

Recorded AUC at 8 h for Nc1nc(O)c2ncn(OCCCO)c2n1 [Example E1, 9-(3-hydroxyprop-1-oxy)guanine] , please? 13

###

experiment: Further evaluation of BRL55792 as oral prodrug of BRL44385: AUC in blood of squirrel monkeys (Table 2); assay type: in vivo; conditions: 110 umol/kg, squirrel monkey, single oral dose 0.11 mmol/kg, 0-8 h, 3 animals, analyte BRL55792, read-out: Mean Area-under-the-curve ± SEM for BRL 55792
reported.metric: AUC at 8 h (µM·h)
Give bare numbers, in µM·h.

Could you share which AUC at 8 h value was measured for CC(C)OCOCCCOn1cnc2cnc(N)nc21 ? 13
